Target: p38MAPKγ (MAPK12) (Homo sapiens, UniProt P53778)
Construct: purchased Life Technologies
Sequence (P53778 1-367): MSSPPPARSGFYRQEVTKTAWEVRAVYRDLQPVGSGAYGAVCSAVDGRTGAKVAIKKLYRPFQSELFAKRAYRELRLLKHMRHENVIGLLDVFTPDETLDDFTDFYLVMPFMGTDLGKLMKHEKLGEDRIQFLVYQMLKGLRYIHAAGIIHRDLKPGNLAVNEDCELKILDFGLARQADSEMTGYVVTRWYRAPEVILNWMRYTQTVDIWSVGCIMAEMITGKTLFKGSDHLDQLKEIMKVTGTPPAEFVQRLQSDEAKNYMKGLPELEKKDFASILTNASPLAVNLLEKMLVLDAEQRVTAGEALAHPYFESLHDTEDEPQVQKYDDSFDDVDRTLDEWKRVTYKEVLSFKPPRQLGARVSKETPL
Assay: p38 MAPKγ enzyme inhibition (Z-LYTE FRET)
Type: biochemical
Settings: Table 2A; read-out: IC50 Values for Enzyme Inhibition p38 MAPKγ
assay_metric: log10 of IC50 (log10 of the value in nM)
Please be aware that the numbers have been log10-transformed from IC50 in nM.

Field: example entries. Status: answers known.
INSERT INTO measurements (smiles_data, system, reported_result) VALUES
  ('Cc1ccc(-n2nc(C(C)(C)C)cc2NC(=O)Nc2ccc(OCc3ccnc(Nc4cnccn4)c3)c3ccccc23)cc1C', 'p38MAPKγ (MAPK12) (Homo sapiens, UniProt P53778)', 2.23),
  ('Cc1ccc(-n2nc(C(C)(C)C)cc2NC(=O)Nc2ccc(OCc3ccnc(Nc4cnc(C(=O)N(C)C)cn4)c3)c3ccccc23)cc1', 'p38MAPKγ (MAPK12) (Homo sapiens, UniProt P53778)', 3.97),
  ('Cc1ccc(-n2nc(C(C)(C)C)cc2NC(=O)Nc2ccc(OCc3ccnc(Nc4cnccn4)c3)c3ccccc23)cc1', 'p38MAPKγ (MAPK12) (Homo sapiens, UniProt P53778)', 1.83),
  ('CC(C)(C)c1cc(NC(=O)Nc2ccc(OCc3ccnc(Nc4cncc(C5CC5)n4)c3)c3ccccc23)n(-c2ccc(O)cc2)n1', 'p38MAPKγ (MAPK12) (Homo sapiens, UniProt P53778)', 2.44),
  ('COCCNC(=O)c1cnc(Nc2cc(COc3ccc(NC(=O)Nc4cc(C(C)(C)C)nn4-c4csc(C)c4)c4ccccc34)ccn2)cn1', 'p38MAPKγ (MAPK12) (Homo sapiens, UniProt P53778)', 2.66);

Consider the additional compound presented here.
Query: I'm curious: which log10 of IC50 was measured for Cc1ccc(-n2nc(C(C)(C)C)cc2NC(=O)Nc2ccc(OCc3ccnc(Nc4cnc(C(=O)N5CCCC5)cn4)c3)c3ccccc23)cc1 tested on p38MAPKγ (MAPK12) (Homo sapiens, UniProt P53778)?
Result: 3.03

----------
target: p38MAPKγ (MAPK12) (Homo sapiens, UniProt P53778); construct: purchased Life Technologies; assay: p38 MAPKγ enzyme inhibition (Z-LYTE FRET); format: biochemical; conditions: Table 2A; read-out: IC50 Values for Enzyme Inhibition p38 MAPKγ
Provide the reported pIC50 of each item.
Answers are plain numbers, as −log10 of the molar value.

Field: example entries. Status: answers known.
INSERT INTO results (smiles_data, reported_result) VALUES
  ('Cc1ccc(-n2nc(C(C)(C)C)cc2NC(=O)Nc2ccc(OCc3ccnc(Nc4cncc(CO)n4)c3)c3ccccc23)cc1', 7.51),
  ('CC(C)(C)c1cc(NC(=O)Nc2ccc(OCc3ccnc(Nc4cncc(C5CC5)n4)c3)c3ccccc23)n(-c2ccc(CO)cc2)n1', 7.31),
  ('Cc1ccc(-n2nc(C(C)(C)C)cc2NC(=O)Nc2ccc(OCc3ccnc(Nc4cncc(C5CCC5)n4)c3)c3ccccc23)cc1', 6.33),
  ('CNC(=O)Cc1cnc(Nc2cc(COc3ccc(NC(=O)Nc4cc(C(C)(C)C)nn4-c4ccc(C)cc4)c4ccccc34)ccn2)cn1', 7.28),
  ('COc1ccc(-n2nc(C(C)(C)C)cc2NC(=O)Nc2ccc(OCc3ccnc(Nc4cnccn4)c3)c3ccccc23)cn1', 6.70);

Query: Would you kindly share the measured pIC50 for COc1ccc(-n2nc(C(C)(C)C)cc2NC(=O)Nc2ccc(OCc3ccnc(Nc4cnccn4)c3)c3ccccc23)cc1C ?
Result: 6.51
